For reference, the following Ki results for Carbonic anhydrase 9 (Homo sapiens, UniProt Q16790) were taken from various sources.
Your answer should be a plain number; it is taken to be in nM.

Use these answered entries as a reference point.
{"columns": ["STRUCTURE_SMILES_STRING", "UOM", "Ki"],
 "data": [
  ["CN1C(=O)/C(=N\\c2ccc(NC(=O)Nc3ccc(S(N)(=O)=O)cc3)cc2)c2ccccc21", "nM", 25.1],
  ["CN1CCN(CC/N=C(\\S)Nc2ccc(S(=O)(=O)NCc3ccc(S(N)(=O)=O)cc3)cc2)CC1", "nM", 5]
]}

Next up:
Please indicate Ki recorded for O=c1oc2c(O)c(O)cc3c(=O)oc4c(O)c(O)cc1c4c23
79800

* * *

pKi: −log10 of the molar value.
For reference, the following pKi results for Carbonic anhydrase 9 (Homo sapiens, UniProt Q16790) were taken from various sources.

{"columns": ["COMPOUND", "OBS_VALUE"],
 "data": [
  ["O=C(CSc1nccc(Nc2ccc(S(=O)(=O)Nc3cncs3)cc2)n1)c1ccc(C(F)(F)F)cc1", "< 4.00"],
  ["NS(=O)(=O)c1ccc(CCN2C(=O)c3ccc([N+](=O)[O-])cc3C2=O)cc1", "< 5.00"]
]}

Next up:
Output reported pKi of the compound CC(C)Cc1ccc(C(C)C(=O)NCCOc2ccc3ccc(=O)oc3c2)cc1 (racemic) on Carbonic anhydrase 9 (Homo sapiens, UniProt Q16790).
< 7.00

* * *

For reference, the following pKi results for Carbonic anhydrase 9 (Homo sapiens) were taken from various sources.
Answer as the number alone; pKi is minus log10 of concentration in mol/L.

Please indicate pKi recorded for NS(=O)(=O)c1ccc(N(/C=C/C(=O)C(F)(F)F)Cc2ccc(Cl)cc2)cc1
7.48

Please indicate pKi recorded for CCOC(=O)c1ccc(NC(=O)CS(=O)(=O)c2ccc(C)cc2)cc1
4.53

Please indicate pKi recorded for NS(=O)(=O)c1cn(CC(=O)c2ccc3ccccc3c2)ccc1=O
6.93

Please indicate pKi recorded for O=C(O)c1cc(-c2cccc(Br)c2)[nH]n1
4.63

Please indicate pKi recorded for NS(=O)(=O)c1ccc(N2C(=O)/C(=C/c3coc4ccccc4c3=O)N=C2c2ccc(Cl)cc2)cc1
7.74

* * *

For reference, the following pKi results for Carbonic anhydrase 9 (Homo sapiens) were taken from various sources.
Answer as the number alone; pKi is minus log10 of concentration in mol/L.

Use these answered entries as a reference point.
{"columns": ["STRUCTURE_SMILES_STRING", "TEST_TARGET", "MEASURED_METRIC", "OBS_VALUE"],
 "data": [
  ["COC(=O)c1cccc(-c2ccc(S(N)(=O)=O)cc2)c1", "Carbonic anhydrase 9 (Homo sapiens)", "pKi", 6.80],
  ["NS(=O)(=O)c1ccc(NC(=O)CN(CCN(CC(=O)O)CC(=O)Nc2ccc(S(N)(=O)=O)cc2)CC(=O)O)cc1", "Carbonic anhydrase 9 (Homo sapiens)", "pKi", 8.11]
]}

Next up:
Please indicate pKi recorded for NCCOc1ccc(S(N)(=O)=O)cc1
8.06

* * *

For reference, the following Ki results for Carbonic anhydrase 9 (Homo sapiens) were taken from various sources.

Use these answered entries as a reference point.
{"columns": ["MOLECULE", "Ki"],
 "data": [
  ["O=C(O)c1cccnc1C(=O)Nc1nnc(S)s1", "242000 nM"],
  ["O=C(C/C=C/CC(=O)Nc1ccc2c(c1)B(O)OC2)Nc1ccc2c(c1)B(O)OC2", "1120 nM"],
  ["O=C(NO)[C@H]1C[C@H](NS(=O)(=O)c2ccc(-c3ccccc3)cc2)CN1S(=O)(=O)c1ccc([N+](=O)[O-])cc1", "23300 nM"],
  ["Cc1nn(C)c2nnc(Nc3ccc(S(=O)(=O)N4CCCNCC4)cc3)nc12", "> 50000 nM"]
]}

Output reported Ki of the molecule CCOP(=O)(OCC)C(Nc1ccc(S(N)(=O)=O)cc1)c1ccc(F)cc1 (stereo not drawn) on Carbonic anhydrase 9 (Homo sapiens).
91.6 nM

Output reported Ki of the molecule O=C(O)c1ccc(N2C(=O)c3c(Cl)c(Cl)c(Cl)c(Cl)c3C2=O)cc1 on Carbonic anhydrase 9 (Homo sapiens).
4.4 nM

Output reported Ki of the molecule COc1ccc(C(=O)c2cn(-c3ccc(S(N)(=O)=O)cc3)nn2)cc1 on Carbonic anhydrase 9 (Homo sapiens).
145 nM

Output reported Ki of the molecule COC(=O)CCNS(=O)(=O)NC12CC3CC(CC(C3)C1)C2 on Carbonic anhydrase 9 (Homo sapiens).
30.5 nM

Output reported Ki of the molecule COc1c(Br)c(Br)c(C[C@H]2C[C@H]2C(=O)O)c(Br)c1OC on Carbonic anhydrase 9 (Homo sapiens).
10500 nM

Output reported Ki of the molecule O=C1c2ccccc2S(=O)(=O)N1Cc1ccc([N+](=O)[O-])cc1 on Carbonic anhydrase 9 (Homo sapiens).
1170 nM

* * *

For reference, the following pKi results for Carbonic anhydrase 9 (Homo sapiens, UniProt Q16790) were taken from various sources.
Answer as the number alone; pKi is minus log10 of concentration in mol/L.

{"columns": ["COMPOUND", "pKi"],
 "data": [
  ["NS(=O)(=O)c1ccc(-c2cccc(-c3ccc(S(N)(=O)=O)cc3)c2)cc1", 6.56],
  ["Cc1ccc(NC(=S)NNC(=O)c2ccncc2)cc1", 5.95],
  ["NS(=O)(=O)c1ccc(-n2cc(-c3ccc(F)cc3)[nH]c2=O)cc1", 7.60]
]}

Output reported pKi of the compound COc1ccc2oc(=O)c(S(N)(=O)=O)cc2c1 on Carbonic anhydrase 9 (Homo sapiens, UniProt Q16790).
7.24

Output reported pKi of the compound NS(=O)(=O)c1ccc(-n2cc(/C=N\Nc3nc(-c4cc5cc(Cl)ccc5oc4=O)cs3)c(-c3ccc(Cl)cc3)n2)cc1 on Carbonic anhydrase 9 (Homo sapiens, UniProt Q16790).
7.55

Output reported pKi of the compound Nc1nc(-c2ccc(NCC(=O)c3ccc(S(N)(=O)=O)cc3)cc2)cn2c(=O)n(-c3ccccc3)nc12 on Carbonic anhydrase 9 (Homo sapiens, UniProt Q16790).
5.02

Output reported pKi of the compound COc1ccccc1N1CCN(c2nccc(OCc3cn(-c4ccc(S(N)(=O)=O)cc4)nn3)n2)CC1 on Carbonic anhydrase 9 (Homo sapiens, UniProt Q16790).
7.35

Output reported pKi of the compound NS(=O)(=O)c1ccc(C(=O)NNC(=O)NS(=O)(=O)c2ccc(F)cc2)cc1 on Carbonic anhydrase 9 (Homo sapiens, UniProt Q16790).
8.21

Output reported pKi of the compound Cc1cc(C)[n+](-c2cc(O)ccc2Cl)c(C)c1 on Carbonic anhydrase 9 (Homo sapiens, UniProt Q16790).
6.15

Output reported pKi of the compound NS(=O)(=O)c1ccc(/N=C/c2ccc(OCc3ccccc3)cc2)cc1 on Carbonic anhydrase 9 (Homo sapiens, UniProt Q16790).
7.44

Output reported pKi of the compound NS(=O)(=O)c1ccc(C(=O)N2CCNC[C@H]2CCO)cc1 on Carbonic anhydrase 9 (Homo sapiens, UniProt Q16790).
7.22

Output reported pKi of the compound CCOc1ccc(S(=O)(=O)NCCN)cc1-c1nnc2c(n1)c(C)nn2C on Carbonic anhydrase 9 (Homo sapiens, UniProt Q16790).
7.48

Output reported pKi of the compound O=C1C=C(c2ccccc2)S(=O)(=O)N1 on Carbonic anhydrase 9 (Homo sapiens, UniProt Q16790).
7.39

Output reported pKi of the compound NS(=O)(=O)c1ccc(C/N=C/c2c(OCc3cn(CCCOc4ccc5ccc(=O)oc5c4)nn3)ccc3ccccc23)cc1 on Carbonic anhydrase 9 (Homo sapiens, UniProt Q16790).
7.34

Output reported pKi of the compound NS(=O)(=O)c1cccc(NCCC(=O)c2ccccc2)c1 on Carbonic anhydrase 9 (Homo sapiens, UniProt Q16790).
7.12

Output reported pKi of the compound NS(=O)(=O)C(F)(F)c1ccc([N+](=O)[O-])cc1 on Carbonic anhydrase 9 (Homo sapiens, UniProt Q16790).
5.62

Output reported pKi of the compound NS(=O)(=O)c1ccc(N2C(=O)CCC2=O)cc1 on Carbonic anhydrase 9 (Homo sapiens, UniProt Q16790).
7.97

Output reported pKi of the compound C[C@]12CC[C@@H]3c4ccc(C(F)(F)S(N)(=O)=O)cc4CC[C@H]3[C@@H]1CCC2=O on Carbonic anhydrase 9 (Homo sapiens, UniProt Q16790).
5.76

Output reported pKi of the compound CCOc1ccc(S(=O)(=O)NC(C)(CO)CO)cc1-c1nnc2c(n1)c(C)nn2C on Carbonic anhydrase 9 (Homo sapiens, UniProt Q16790).
7.49

Output reported pKi of the compound NS(=O)(=O)c1cc2cc([N+](=O)[O-])ccc2oc1=O on Carbonic anhydrase 9 (Homo sapiens, UniProt Q16790).
6.83

Output reported pKi of the compound O=C(NN=C(c1ccccc1)c1ccccc1)Nc1n[nH]c(=S)s1 on Carbonic anhydrase 9 (Homo sapiens, UniProt Q16790).
5.07

Output reported pKi of the compound NS(=O)(=O)c1ccc(/N=C2\NC(=O)/C(=C3/C(=O)Nc4ccccc43)S2)cc1 on Carbonic anhydrase 9 (Homo sapiens, UniProt Q16790).
7.33
